- STUDY_SYSTEM: ACE-2 (Homo sapiens)
- Construct: a stop codon inserted after the serine immediately preceding the transmembrane domain; made in house; host or cells: CHO K1 cells (transient transfection, purified from conditioned medium)
- Sequence (Q9BYF1 18-740 limits assumed): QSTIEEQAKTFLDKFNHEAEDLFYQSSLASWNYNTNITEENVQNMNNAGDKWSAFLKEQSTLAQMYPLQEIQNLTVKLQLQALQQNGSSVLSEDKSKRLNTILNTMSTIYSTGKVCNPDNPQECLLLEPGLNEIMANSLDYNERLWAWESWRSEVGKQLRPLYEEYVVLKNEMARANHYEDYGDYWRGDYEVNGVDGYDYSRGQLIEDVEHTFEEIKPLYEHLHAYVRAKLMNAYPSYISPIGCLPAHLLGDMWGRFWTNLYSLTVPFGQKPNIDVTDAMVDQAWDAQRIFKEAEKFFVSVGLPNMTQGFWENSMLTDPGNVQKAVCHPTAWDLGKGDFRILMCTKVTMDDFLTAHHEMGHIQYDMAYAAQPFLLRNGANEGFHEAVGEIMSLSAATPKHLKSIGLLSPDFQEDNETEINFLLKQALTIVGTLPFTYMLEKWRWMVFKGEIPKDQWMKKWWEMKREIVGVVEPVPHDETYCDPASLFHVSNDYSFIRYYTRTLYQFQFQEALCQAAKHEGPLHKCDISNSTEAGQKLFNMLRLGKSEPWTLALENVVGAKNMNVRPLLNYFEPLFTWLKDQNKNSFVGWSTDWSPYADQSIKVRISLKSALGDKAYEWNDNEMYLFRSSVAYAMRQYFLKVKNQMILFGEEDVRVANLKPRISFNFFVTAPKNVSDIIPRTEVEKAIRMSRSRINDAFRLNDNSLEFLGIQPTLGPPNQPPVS
- TEST_DETAILS: ACE-2 Competitive Substrate Assay (ACS Assay)
- Assay type: biochemical
- CONDITION_CONTEXT: Ki class; compounds tested in 5% DMSO, 12 compound concentrations, Ki=Kiapp/(1+[S]/Km); read-out: Human ACE-2 Activity
ASSAY_METRIC: Ki

{"COMPOUND": "Cc1cc(C)cc(-c2ccc(C[C@H](N[C@@H](CC(C)C)C(=O)O)C(=O)O)o2)c1", "RESULT": "100 to 500 nM"}
{"COMPOUND": "CC(C)CC(N[C@@H](Cc1cncn1Cc1cccc(I)c1)C(=O)O)C(=O)O (single isomer, unassigned)", "RESULT": "< 100 nM"}
{"COMPOUND": "CC(C)C[C@H](N[C@@H](Cc1ccc(OCC2CCCCC2)cc1)C(=O)O)C(=O)O", "RESULT": "100 to 500 nM"}
{"COMPOUND": "CC(C)C[C@H](N[C@@H](CC(=O)Nc1nc2c(Cl)cccc2s1)C(=O)O)C(=O)O", "RESULT": "< 100 nM"}
{"COMPOUND": "CC(C)CC(N[C@@H](Cc1cncn1Cc1ccc(C#N)cc1)C(=O)O)C(=O)O (single isomer, unassigned) [HB]", "RESULT": "> 500 nM"}
{"COMPOUND": "CC(C)CC(N[C@@H](Cc1cncn1Cc1cccc(Cl)c1Cl)C(=O)O)C(=O)O (single isomer, unassigned) [IY]", "RESULT": "< 100 nM"}
{"COMPOUND": "CC(C)C[C@H](N[C@@H](Cc1ccc(-c2ccc3c(c2)OCO3)o1)C(=O)O)C(=O)O", "RESULT": "100 to 500 nM"}
{"COMPOUND": "CC(C)CC(N[C@@H](Cc1cncn1Cc1ccc(OC(F)(F)F)cc1)C(=O)O)C(=O)O (single isomer, unassigned) [HS]", "RESULT": "< 100 nM"}

---

- STUDY_SYSTEM: ACE-2 (Rattus norvegicus, UniProt Q5EGZ1)
- Sequence (Q5EGZ1 18-805): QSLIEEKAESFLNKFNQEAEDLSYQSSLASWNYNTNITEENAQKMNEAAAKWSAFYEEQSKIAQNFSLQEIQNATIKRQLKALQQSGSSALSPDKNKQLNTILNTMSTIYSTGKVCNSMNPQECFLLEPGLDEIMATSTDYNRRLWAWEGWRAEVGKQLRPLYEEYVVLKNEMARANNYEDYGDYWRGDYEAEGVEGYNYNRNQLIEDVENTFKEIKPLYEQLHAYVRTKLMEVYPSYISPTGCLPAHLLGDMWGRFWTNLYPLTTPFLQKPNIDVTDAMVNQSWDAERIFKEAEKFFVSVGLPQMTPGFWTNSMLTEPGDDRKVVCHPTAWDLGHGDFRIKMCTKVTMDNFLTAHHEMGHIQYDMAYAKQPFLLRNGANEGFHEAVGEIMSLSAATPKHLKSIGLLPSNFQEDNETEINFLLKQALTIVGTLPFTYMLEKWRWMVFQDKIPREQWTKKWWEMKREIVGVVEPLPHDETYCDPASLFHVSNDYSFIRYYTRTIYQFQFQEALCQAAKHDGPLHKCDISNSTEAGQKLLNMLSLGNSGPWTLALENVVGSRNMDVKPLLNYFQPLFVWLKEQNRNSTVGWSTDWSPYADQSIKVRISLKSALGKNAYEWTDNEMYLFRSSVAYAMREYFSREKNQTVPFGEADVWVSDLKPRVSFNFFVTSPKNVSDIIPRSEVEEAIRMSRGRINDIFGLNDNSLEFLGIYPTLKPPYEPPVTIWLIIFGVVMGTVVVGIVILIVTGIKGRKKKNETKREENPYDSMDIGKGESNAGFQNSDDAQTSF
- TEST_DETAILS: ACE-2 Competitive Substrate Assay, rat ACE-2
- Type: biochemical
- CONDITION_CONTEXT: Ki class; compounds tested in 5% DMSO, 12 concentrations

{"COMPOUND": "CC(C)CC(N[C@@H](Cc1cnc[nH]1)C(=O)NCCc1ccccc1)C(=O)O (single isomer, unassigned) [FW]", "Ki": "> 0.5 µM"}
{"COMPOUND": "O=C(O)[C@H](CC#Cc1ccccn1)N[C@@H](CCc1ccccc1)C(=O)O [EA]", "Ki": "0.1 to 0.5 µM"}
{"COMPOUND": "COC(=O)[C@H](CC(C)C)NCC(=O)c1ccc(-c2ccccc2)cc1 [DH]", "Ki": "> 0.5 µM"}
{"COMPOUND": "CC(C)CC(N[C@@H](Cc1cncn1COCc1ccccc1)C(=O)O)C(=O)O (single isomer, unassigned) [EO]", "Ki": "> 0.5 µM"}
{"COMPOUND": "CC(C)CC(N[C@H](Cc1cccnc1)C(=O)O)C(=O)O (stereo partly drawn) [CC]", "Ki": "> 0.5 µM"}
{"COMPOUND": "CC(C)CC(N[C@H](CN(C)c1ccccc1)C(=O)O)C(=O)O (stereo partly drawn) [FT]", "Ki": "> 0.5 µM"}
{"COMPOUND": "CC(C)CC(N[C@H](Cc1cscn1)C(=O)O)C(=O)O (stereo partly drawn) [CV]", "Ki": "> 0.5 µM"}
{"COMPOUND": "CC(C)CC(N[C@@H](Cc1cncn1Cc1ccc(Cl)cc1)C(=O)O)C(=O)O (single isomer, unassigned) [GM]", "Ki": "< 0.1 µM"}
{"COMPOUND": "CC(C)CC(N[C@@H](Cc1cncn1COCc1ccccc1)C(=O)O)C(=O)O (single isomer, unassigned) [EN]", "Ki": "0.1 to 0.5 µM"}
{"COMPOUND": "CC(C)CC(N[C@H](Cc1nc[nH]n1)C(=O)O)C(=O)O (stereo partly drawn) [CE]", "Ki": "> 0.5 µM"}
{"COMPOUND": "CC(C)CC(N[C@H](CO)Cc1c[nH]cn1)C(=O)O (single isomer, unassigned) [FO]", "Ki": "> 0.5 µM"}
{"COMPOUND": "CC(C)CC(N[C@@H](Cc1cncn1Cc1cccc2ccccc12)C(=O)O)C(=O)O (single isomer, unassigned) [GK]", "Ki": "< 0.1 µM"}
{"COMPOUND": "CCCCC(N[C@@H](Cc1cncn1Cc1ccccc1)C(=O)O)C(=O)O (single isomer, unassigned) [FZ]", "Ki": "> 0.5 µM"}
{"COMPOUND": "CC(C)CC(NC(Cc1nccs1)C(=O)O)C(=O)O (stereo not drawn) [CF]", "Ki": "0.1 to 0.5 µM"}
{"COMPOUND": "COc1ccc(C(N[C@@H](CC(C)C)C(=O)O)C(=O)O)cc1 (stereo partly drawn) [BQ]", "Ki": "> 0.5 µM"}
{"COMPOUND": "CC(C)CC(N[C@@H](CN(C)c1ccccc1)C(=O)O)C(=O)O (stereo partly drawn) [FS]", "Ki": "< 0.1 µM"}
{"COMPOUND": "CC(C)C[C@H](N[C@@H](C(=O)O)c1ccccc1)C(=O)O [R]", "Ki": "> 0.5 µM"}
{"COMPOUND": "CCC(C)C(N[C@H](Cc1c[nH]cn1)C(=O)O)C(=O)O (stereo in doubt) [BE]", "Ki": "> 0.5 µM"}

Numbers sourced from patent US7045532B2.
